Source listed as ChEMBL document CHEMBL4138101.

- MEASUREMENT DESCRIPTION: Selectivity index, ratio of LC50 for cytotoxicity against Swiss albino mouse peritoneal macrophages to IC50 for Antitrypanosomal activity against bloodstream forms of Trypanosoma cruzi Y isolated from parasite infected Albino Swiss mouse
- Assay type: toxicity
- CONDITION: read-out: Ratio LC50/IC50
MEASURED PARAMETER: selectivity ratio

Cc1cc(I)c2c(c1)C(=O)C=CC2=O ... 24.7
O=C1C(Br)=CC(=O)c2c(I)cccc21 ... 8.8
COc1ccc2c(c1I)C(=O)C=CC2=O ... 12.1
O=C1C(Br)=C(Br)C(=O)c2c(I)cccc21 ... 5.3
Nc1c(I)ccc2c1C(=O)C=CC2=O ... 23.4
CC(C)(C)C1=CC(=O)C(I)=CC1=O ... 2.8
O=C1C=CC(=O)c2c(I)cccc21 ... 19.5
COc1c(I)ccc2c1C(=O)C=C(C)C2=O ... 6.1
COC(=O)c1ccc(I)c2c1C(=O)C=CC2=O ... 8.7
O=C1C=C(I)C(=O)c2ccccc21 ... 8.2
O=C1C=CC(=O)c2c1cccc2-c1ccccc1 ... 10.2
COc1ccc(I)c2c1C(=O)C=CC2=O ... 3.8

---

- MEASUREMENT DESCRIPTION: Cytotoxicity against Swiss albino mouse peritoneal macrophages after 24 hrs by PrestoBlue dye based assay
- Assay type: cell-based, Peritoneal macrophage
- CONDITION: read-out: LC50
Recorded CC50 at 24 h values for a group of compounds are listed next.
MEASURED PARAMETER: CC50 at 24 h (µM)

COc1ccc(I)c2c1C(=O)C=CC2=O ... 13.6
COC(=O)c1ccc(I)c2c1C(=O)C=CC2=O ... 13.9
O=C1C(Br)=C(Br)C(=O)c2c(I)cccc21 ... 11.8
O=C1C=CC(=O)C(I)=C1 ... 86
COc1c(I)ccc2c1C(=O)C=C(C)C2=O ... 24.7
O=C1C=CC(=O)c2c(/C=C/c3ccccc3)cccc21 ... 11.9
O=C1C=CC(=O)c2c(C#Cc3ccccc3)cccc21 ... 12.5
O=C1C=C(I)C(=O)c2ccccc21 ... 14.7
COc1ccc2c(c1I)C(=O)C=CC2=O ... 14.2
Nc1c(I)ccc2c1C(=O)C=CC2=O ... 13.1
COC1=C(I)C(=O)C(I)=C(OC)C1=O ... 27.7
COc1cc2c(c(I)c1OC)C(=O)C=CC2=O ... 12.2
O=C1C=CC(=O)C(Br)=C1 ... 34.4
O=C1C=CC(=O)c2c1cccc2-c1ccccc1 ... 12.7
O=C1C=CC(=O)C([Se]c2ccccc2)=C1 ... 13.8
O=C1C=C([Se]c2ccccc2)C(=O)c2ccccc21 ... 12.7
Cc1cc(I)c2c(c1)C(=O)C=CC2=O ... 12.1
O=C1C=CC(=O)c2c(I)ccc(I)c21 ... 12.9
O=C1C(Br)=CC(=O)c2c(I)cccc21 ... 12.2
CCOC(=O)/C=C/c1cccc2c1C(=O)C=CC2=O ... 12.7
COC1=C(I)C(=O)C=CC1=O ... 32.6
CC1=C(C)C(=O)C(I)=CC1=O ... 15.4

---

- MEASUREMENT DESCRIPTION: Selectivity index, ratio of LC50 for cytotoxicity against Swiss albino mouse peritoneal macrophages to IC50 for Antitrypanosomal activity against bloodstream forms of Trypanosoma cruzi Y isolated from parasite infected Albino Swiss mouse
- Assay type: toxicity
- CONDITION: read-out: Ratio LC50/IC50
Rule: selectivity ratio below 10 gives Condition met, anything at or above gives Condition not met.

O=C(Cn1ccnc1[N+](=O)[O-])NCc1ccccc1 ... Condition not met
CC1=CC(=O)c2c(ccc(I)c2O)C1=O ... Condition not met
O=C1C=CC(=O)c2c(/C=C/c3ccccc3)cccc21 ... Condition not met
O=C1C=C([Se]c2ccccc2)C(=O)c2ccccc21 ... Condition not met
CCOC(=O)/C=C/c1cccc2c1C(=O)C=CC2=O ... Condition met
O=C1C=CC(=O)C(Br)=C1 ... Condition met
COC1=C(I)C(=O)C=CC1=O ... Condition met
CC(C)(C)C1=CC(=O)C(Br)=CC1=O ... Condition met

---

- MEASUREMENT DESCRIPTION: Cytotoxicity against Swiss albino mouse peritoneal macrophages after 24 hrs by PrestoBlue dye based assay
- Assay type: cell-based, Peritoneal macrophage
- CONDITION: read-out: LC50
MEASURED PARAMETER: CC50 at 24 h

O=C1C=C(I)C(=O)C(Cl)=C1Cl ... > 100 µM
O=C1C=C(Br)C(=O)C(Cl)=C1Cl ... > 100 µM
O=C1C=CC(=O)c2c1ccc(I)c2O ... > 100 µM
O=C1C=C([Se]c2ccccc2)C(=O)C=C1[Se]c1ccccc1 ... > 100 µM
O=C(Cn1ccnc1[N+](=O)[O-])NCc1ccccc1 ... > 4000 µM
O=C1C=CC(=O)c2c(O)c(I)cc(I)c21 ... > 100 µM

---

- MEASUREMENT DESCRIPTION: Selectivity index, ratio of LC50 for cytotoxicity against Swiss albino mouse peritoneal macrophages to IC50 for Antitrypanosomal activity against bloodstream forms of Trypanosoma cruzi Y isolated from parasite infected Albino Swiss mouse
- Assay type: toxicity
- CONDITION: read-out: Ratio LC50/IC50
Recorded selectivity ratio values for a group of compounds are listed next.
MEASURED PARAMETER: selectivity ratio

O=C1C=CC(=O)c2c(O)c(I)cc(I)c21 ... > 5.1
O=C1C=C([Se]c2ccccc2)C(=O)C=C1[Se]c1ccccc1 ... > 1.2
O=C1C=C(Br)C(=O)C(Cl)=C1Cl ... > 6.5
